Biological target: T1, human PD-L1 (hPD-L1) expressed on transfected 300.19 cells (human, UniProt Q9NZQ7 19-290)
T1 construct: whole, on cells; also called B7H1
T1 sequence (Q9NZQ7 19-290): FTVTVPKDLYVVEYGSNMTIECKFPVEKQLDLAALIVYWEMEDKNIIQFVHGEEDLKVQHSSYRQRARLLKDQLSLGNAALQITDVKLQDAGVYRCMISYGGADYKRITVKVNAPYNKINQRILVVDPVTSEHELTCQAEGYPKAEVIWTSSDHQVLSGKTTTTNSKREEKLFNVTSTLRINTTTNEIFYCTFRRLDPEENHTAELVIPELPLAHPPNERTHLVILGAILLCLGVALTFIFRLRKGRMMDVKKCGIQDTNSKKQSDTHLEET
Assay: competition FACS, hPD-L1 300.19 cells, signal = bound hPD-1-mIgG2a, Ab 1 ug/ml
Protocol: A competitive FACS analysis was performed to characterize the inhibition of hPD1 binding to hPD-L1 by the soluble huPD-L1 antibodies of the present invention. […] In this assay, 50,000 cells expressing hPD-L1 were pre-incubated with the huPD-L1 or control antibodies for 30 minutes at the following concentrations: 10 μg/ml, 1 μg/ml, 0.1 μg/ml and 0.01 μg/ml. […] After 30 minutes of incubation, the cells were washed twice and then analyzed by FACS. […]
# Cells PE-A Mean (bound hPD-1-mIgG2a) annotations
Expressed in MFI, but write only the number.

As a guide, the following entries are already answered.
* Ab-14 (antibody, V domains shown, also called huPD-L1 Ab # 14) VH: QVQLVQSGAEVKKPGASVKVSCKASGYTFTSYGISWVRQAPGQGLEWMGWISAYNGNTNYAQKLQGRVTMTTDTSTSTAYMELRSLRSDDTAVYYCARALPSGTILVGGWFDPWGQGTLVTVSS VL: NFMLTQPHSVSESPGKTVTISCTRSSGNIASNYVQWYQQRPGSAPTTVIYEDNQRPSGVPDRFSGSIDSSSNSASLTISGLKTEDEADYYCQSYDSSNLWVFGGGTKLTVL | 12000
* Ab-50 (antibody, V domains shown, also called huPD-L1 Ab # 50) VH: QVQLVQSGGEVKKPGASVKVSCKASGYTLSSHGITWVRQAPGQGLEWMGWISAHNGHASNAQKVEDRVTMTTDTSTNTAYMELRSLTADDTAVYYCARVHAALYYGMDVWGQGTLVTVSS VL: QSVLTQPPSVSVAPGQTARITCGGNNIGSKGVHWYQQKPGQAPVLVVYDDSDRPSGIPERFSGSNSGNTATLTISRVEAGDEADYYCQVWDSSSDHWVFGGGTKLTVL | 156
* Ab-55 (antibody, V domains shown, also called huPD-L1 Ab # 55) VH: QVQLVQSGAEVKKPGASVKVSCKASGYTFTSYGISWVRQAPGQGLEWMGWTSPHNGLTAFAQILEGRVTMTTDTSTNTAYMELRNLTFDDTAVYFCAKVHPVFSYALDVWGQGTLVTVSS VL: NFMLTQPHSVSESPGKTVTISCTRSSGSIASNYVQWYQQRPGSSPTTVIYEDNQRPSGVPDRFSGSIDTSSNSASLTISGLKTKDEADYYCQSYDGITVIFGGGTKLTVL | 3620

Please examine the following record next.
Data request: Which Cells PE-A Mean (bound hPD-1-mIgG2a) reading was recorded for the binder Ab-52 (antibody, V domains shown, also called huPD-L1 Ab # 52) VH: QVQLQESGGGVVQPGRSLRLSCSASGFTFSRHGMHWVRQAPGKGLEWVAVISHDGSVKYYADSMKGRFSISRDNSNNTLYLQMDSLRADDTAVYYCARGLSYQVSGWFDPWGQGTLVTVSS VL: NFMLTQPHSVSESPGKTVTISCTRSSGSIASNYVQWYQQRPGSAPTTVIYEDNQRPSGVPDRFSGSIDSSSNSASLTISGLKTEDEADYYCQSYDSTTPSVFGGGTKLTVL ?
Data returned: 2070
